Reference source: ChEMBL document CHEMBL1142699

Readings of Ki for the listed compounds
target: Nociceptin receptor (Homo sapiens, UniProt P41146); assay: Receptor binding affinity for recombinant human N/OFQ peptide receptor (NOP) expressed in chinese hamster ovary cells
Sequence (P41146 whole entry): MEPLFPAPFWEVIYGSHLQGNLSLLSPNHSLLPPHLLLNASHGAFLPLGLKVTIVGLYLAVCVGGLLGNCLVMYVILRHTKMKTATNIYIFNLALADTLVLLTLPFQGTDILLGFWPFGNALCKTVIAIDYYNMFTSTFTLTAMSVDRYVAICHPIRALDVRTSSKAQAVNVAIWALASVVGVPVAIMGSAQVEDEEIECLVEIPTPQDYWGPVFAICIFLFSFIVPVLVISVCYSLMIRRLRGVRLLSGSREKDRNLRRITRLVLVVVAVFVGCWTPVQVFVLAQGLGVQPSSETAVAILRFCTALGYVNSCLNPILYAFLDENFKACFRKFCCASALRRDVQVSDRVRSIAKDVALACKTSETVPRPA
Numbered stars: 1 amine (or outer) side, 2 acyl side, 3 side chain; on linkers, the order of the positions; unused ones are H or OH. Square brackets hold non-standard residues; d marks the D form. Peptide text beside a SMILES is read from it. X1 = N[C@@H](Cc1ccccc1)CN(CC(=O)[*:2])[*:1]
recorded.metric: Ki (nM)

# compound, recorded.metric, recorded.number
measured = [
    ("CC(C)C[C@H](NC(=O)[C@H](CCCCN)NC(=O)[C@H](CCCN=C(N)N)NC(=O)[C@H](C)NC(=O)[C@H](CO)NC(=O)[C@H](CCCCN)NC(=O)[C@H](CCCN=C(N)N)NC(=O)[C@H](C)NC(=O)CNC(=O)[C@@H](NC(=O)[C@H](Cc1ccccc1)NC(=O)CNC(=O)CNC[C@@H](N)Cc1ccccc1)[C@@H](C)O)C(=O)N[C@@H](C)C(=O)N[C@@H](CC(N)=O)C(=O)N[C@@H](CCC(N)=O)C(N)=O (H-[X1]GFTGARKSARKLANQ-NH2)", "Ki", 0.129),
    ("C[C@H](NC(=O)CNC(=O)[C@@H](NC(=O)[C@H](Cc1ccccc1)NC(=O)CNC(=O)CNC(=O)[C@@H](N)Cc1ccccc1)[C@@H](C)O)C(=O)N[C@@H](CCCN=C(N)N)C(=O)N[C@@H](CCCCN)C(=O)N[C@@H](CO)C(=O)N[C@@H](C)C(=O)N[C@@H](CCCN=C(N)N)C(=O)N[C@@H](CCCCN)C(=O)N[C@@H](CCCN=C(N)N)C(=O)N[C@@H](CCCCN)C(=O)N[C@@H](CC(N)=O)C(=O)N[C@@H](CCC(N)=O)C(N)=O", "Ki", 0.00692),
]
